Data credit: patent US9878007B2

Test system: CAG myeloma cells
Assay: Cell spreading / attachment assay of CAG myeloma cells on FN or VCAM-1
Format: cell-based, human
Conditions: on VCAM-1; 0.3 μM peptide
Parameter: induction of HPSE^low cell spreading by S1ED peptides

S1ED^210-233: syndecan-1 ectodomain peptide, residues 210-233 (SEQ ID NO: 4) (DFTFETSGENTAVVAVEPDRRNQS) :: do not
S1ED^214-240: syndecan-1 ectodomain peptide, residues 214-240 (SEQ ID NO: 5) (ETSGENTAVVAVEPDRRNQSPVDQGAT) :: do not
